# system-under-test: Carbonic anhydrase 12 (Homo sapiens, UniProt O43570)
# Sequence (O43570 whole entry): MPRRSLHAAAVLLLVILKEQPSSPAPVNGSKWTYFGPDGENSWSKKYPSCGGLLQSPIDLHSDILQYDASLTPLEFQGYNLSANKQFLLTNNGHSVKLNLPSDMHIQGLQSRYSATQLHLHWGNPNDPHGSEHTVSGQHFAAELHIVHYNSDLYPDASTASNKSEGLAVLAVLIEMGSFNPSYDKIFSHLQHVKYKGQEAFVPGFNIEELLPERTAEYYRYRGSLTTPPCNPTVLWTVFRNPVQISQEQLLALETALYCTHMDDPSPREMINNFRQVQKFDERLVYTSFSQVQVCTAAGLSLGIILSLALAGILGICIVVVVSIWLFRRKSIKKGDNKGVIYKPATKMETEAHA
# experimental-details: Inhibition of human CA12 preincubated for 15 mins by stopped-flow CO2 hydration kinetic assay based Cheng-Prusoff equation analysis
recorded-metric: Ki (nM)

Reference set, count: 6
molecule=CCCCCCN(CCCCCC)CCC(=O)N(CCc1ccccc1)CCc1ccc(S(N)(=O)=O)cc1 quantitative_result=62.5
molecule=N#CCCN(CCc1ccccc1)CC(=O)N(CCc1ccccc1)CCc1ccc(S(N)(=O)=O)cc1 quantitative_result=75.5
molecule=CCN(CC)CC(=O)N(CCc1ccc(S(N)(=O)=O)cc1)Cc1ccccc1 quantitative_result=43.9
molecule=NS(=O)(=O)c1ccc(CCNCc2ccccc2)cc1 quantitative_result=65.4
molecule=N#CCCNCCc1ccc(S(N)(=O)=O)cc1 quantitative_result=113
molecule=NS(=O)(=O)c1ccc(CCN(Cc2ccc(F)cc2)C(=O)CN(CCC(=O)O)CCc2ccccc2)cc1 quantitative_result=8.8

1 = CCCCCCCCN(CCCCCCCC)CC(=O)N(CCc1ccc(S(N)(=O)=O)cc1)Cc1ccccc1
2 = N#CCCN(CCc1ccccc1)CC(=O)N(CCc1ccc(S(N)(=O)=O)cc1)Cc1ccc(F)cc1
input: Which record would sort first by descending Ki, 1 or 2 ? Write down the label of the entry you select.
output: 1
(1: 99.4 nM, 2: 9.8 nM)

* * *

# Species: Homo sapiens
# experimental-details: Selectivity index, ratio of Ki for inhibition of human CA1 to Ki for inhibition of human CA4
recorded-metric: Ratio Ki

1 = NS(=O)(=O)c1ccc(CCN(Cc2ccco2)C(=O)CN(CCC(=O)O)CCc2ccccc2)cc1
2 = NS(=O)(=O)c1ccc(CCNCc2ccc([N+](=O)[O-])cc2)cc1
3 = NCCCN(CCc1ccccc1)CC(=O)N(CCc1ccc(S(N)(=O)=O)cc1)Cc1ccc(F)cc1
4 = NS(=O)(=O)c1ccc(CCNCc2ccco2)cc1
input: Rank by decreasing Ratio Ki the items listed here. In your reply, arrange the labels in the requested order.
output: 3, 1, 2, 4
(3: 1.2, 1: 0.2, 2: 0.1, 4: 0.04)

1 = N#CCCN(CCc1ccccc1)CC(=O)N(CCc1ccc(S(N)(=O)=O)cc1)Cc1ccc2ccccc2c1
2 = NS(=O)(=O)c1ccc(CCNCCc2ccccc2)cc1
input: Which record would sort first by descending Ratio Ki, 1 or 2 ? Write down the label of the entry you select.
output: 1

* * *

# Species on record: Homo sapiens
# experimental-details: Selectivity index, ratio of Ki for inhibition of human CA2 to Ki for inhibition of human CA4
recorded-metric: Ratio Ki

molecule=NCCCN(CCc1ccccc1)CC(=O)N(CCc1ccccc1)CCc1ccc(S(N)(=O)=O)cc1 quantitative_result=0.2
molecule=CCN(CC)CCC(=O)N(CCc1ccc(S(N)(=O)=O)cc1)Cc1ccccc1 quantitative_result=0.002
molecule=NS(=O)(=O)c1ccc(CCNCc2ccc3ccccc3c2)cc1 quantitative_result=0.01

1 = CCCCCCN(CCCCCC)CCC(=O)N(CCc1ccccc1)CCc1ccc(S(N)(=O)=O)cc1
2 = NCCCN(CCc1ccccc1)CC(=O)N(CCc1ccc(S(N)(=O)=O)cc1)Cc1ccc2ccccc2c1
input: Identify the entry with the smaller Ratio Ki: 1 or 2 . Write down the label of the entry you select.
output: 2

* * *

# Species: Homo sapiens
# experimental-details: Selectivity index, ratio of Ki for inhibition of human CA1 to Ki for inhibition of human CA4
recorded-metric: Ratio Ki

molecule=NCCCN(CCc1ccccc1)CC(=O)N(CCc1ccc(S(N)(=O)=O)cc1)Cc1ccco1 recorded_metric="Ratio Ki" quantitative_result=0.7
molecule=CCN(CC)CC(=O)N(CCc1ccc(S(N)(=O)=O)cc1)Cc1ccccc1 recorded_metric="Ratio Ki" quantitative_result=0.2
molecule=CCCCCCN(CCCCCC)CC(=O)N(CCCN)CCc1ccc(S(N)(=O)=O)cc1 recorded_metric="Ratio Ki" quantitative_result=0.5
molecule=CCCCCCN(CCCCCC)CC(=O)N(CCC#N)CCc1ccc(S(N)(=O)=O)cc1 recorded_metric="Ratio Ki" quantitative_result=0.1
molecule=CCCCCCN(CCCCCC)CCC(=O)N(CCc1ccc(S(N)(=O)=O)cc1)Cc1ccccc1 recorded_metric="Ratio Ki" quantitative_result=0.09
molecule=NS(=O)(=O)c1ccc(CCNCc2ccc3ccccc3c2)cc1 recorded_metric="Ratio Ki" quantitative_result=0.07
molecule=NCCCN(CCc1ccccc1)CC(=O)N(CCc1ccccc1)CCc1ccc(S(N)(=O)=O)cc1 recorded_metric="Ratio Ki" quantitative_result=0.1
molecule=NCCCN(CCc1ccccc1)CC(=O)N(CCc1ccc(S(N)(=O)=O)cc1)Cc1ccc2ccccc2c1 recorded_metric="Ratio Ki" quantitative_result=0.6
molecule=CCCCCCCC/C=C\CCCCCCCCNC(=O)CCN(CCc1ccccc1)CC(=O)N(CCc1ccc(S(N)(=O)=O)cc1)Cc1ccco1 recorded_metric="Ratio Ki" quantitative_result=0.4
molecule=CCN(CC)CCC(=O)N(CCc1ccc(S(N)(=O)=O)cc1)Cc1ccccc1 recorded_metric="Ratio Ki" quantitative_result=0.04

P = N#CCCN(CCc1ccccc1)CC(=O)N(CCc1ccc(S(N)(=O)=O)cc1)Cc1ccc([N+](=O)[O-])cc1
Q = N#CCCNCCc1ccc(S(N)(=O)=O)cc1
R = NS(=O)(=O)c1ccc(CCN(CCc2ccccc2)C(=O)CN(CCC(=O)O)CCc2ccccc2)cc1
S = N#CCCN(CCc1ccccc1)CC(=O)N(CCc1ccc(S(N)(=O)=O)cc1)Cc1ccco1
T = CCCCCCN(CCCCCC)CC(=O)N(CCC(=O)O)CCc1ccc(S(N)(=O)=O)cc1
input: Task field, ranking: reported Ratio Ki, descending order. In your reply, arrange the labels in the requested order.
output: T, S, P, R, Q

A = CCCCCCN(CCCCCC)CCC(=O)N(CCc1ccccc1)CCc1ccc(S(N)(=O)=O)cc1
B = N#CCCN(CCc1ccccc1)CC(=O)N(CCC#N)CCc1ccc(S(N)(=O)=O)cc1
input: Which record would sort first by descending Ratio Ki, A or B ? Write down the label of the entry you select.
output: A
(A: 0.2, B: 0.08)

Data origin, for the record: ChEMBL document CHEMBL4613327
